Values compiled from patent US10100076B2.

Tested on: rRNA (host RNA polymerase I product)
Assay: rRNA ΔCt in Huh7 replicon cells (effect on host RNA polymerases); note: test concentration or dose not given here
Settings: Table 24, average of n
Note to self: values exactly at 2 are true. So Ave. rRNA ΔCt at or above 2 is true, below is false.

>>> print(df.to_string())
                                        mol  discrete_label
0  N=c1nc2c(c[nH]1)[C@@H]1O[C@H](CO)[C@@H](O)[C@@H]1O2            true
1  Nc1ccn([C@@H]2C=C(CO)[C@@H](O)[C@H]2O)c(=O)n1            true
2  Nc1ccn([C@@H]2O[C@H](CO)C[C@H]2O)c(=O)n1           false
3    Nc1nc(F)nc2c1ncn2[C@@H]1C=C[C@H](CO)O1            true
4  Nc1ccn([C@@H]2O[C@H](CO)[C@@H](O)[C@@H]2Cl)c(=O)n1            true
